# system-name: T1, mouse melanocortin 1 receptor (mouse, UniProt Q01727 1-315)
# T1 construct: whole, on cells; also called mMC1R; MC1R
# T1 sequence (Q01727 whole entry): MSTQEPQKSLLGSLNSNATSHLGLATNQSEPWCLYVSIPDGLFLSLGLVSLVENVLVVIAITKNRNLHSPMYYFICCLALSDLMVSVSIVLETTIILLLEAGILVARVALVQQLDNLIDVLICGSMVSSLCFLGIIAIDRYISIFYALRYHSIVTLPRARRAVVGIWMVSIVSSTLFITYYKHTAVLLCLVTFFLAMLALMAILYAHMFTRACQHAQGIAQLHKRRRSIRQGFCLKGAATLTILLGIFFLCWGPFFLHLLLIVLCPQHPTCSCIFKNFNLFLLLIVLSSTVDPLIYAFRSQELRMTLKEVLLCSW
# protocol-text: 125I-NDP-MSH competition, HEK293 cells
Square brackets hold non-standard residues; d marks the D form. Dap = NC[C@H](N)C(=O)O
value-type: IC50 (µM)
Provide only the numeric value, understood in µM.

{"binder": "cyclo(PRFF[Dap]VF[dP]) (Ala115Val SNP in the Dap scaffold; also called c[Pro-Arg-Phe-Phe-Dap-Val-Phe-DPro]) [ZMK 2-85]", "value-type": "IC50", "units-label": "µM", "measured": 8}
{"binder": "cyclo(PCFF[Dap]AF[dP]) (Arg111Cys SNP in the Dap scaffold; also called c[Pro-Cys-Phe-Phe-Dap-Ala-Phe-DPro]) [ZMK 3-20]", "value-type": "IC50", "units-label": "µM", "measured": 33}
{"binder": "cyclo(PRFFNAF[dP]) (also: assayed as TFA salt, AgRP 111-116 loop cyclized through DPro-Pro; Asn5 parent scaffold; assayed as TFA salt; also called Compound 1; c[Pro-Arg-Phe-Phe-Asn-Ala-Phe-DPro]) [1 (MDE 6-82-3c)]", "value-type": "IC50", "units-label": "µM", "measured": 9}

Kindly review the next binder as well.
INPUT: Give the measured IC50 of cyclo(PRFFNVF[dP]) (Ala115Val SNP in the Asn scaffold; also called c[Pro-Arg-Phe-Phe-Asn-Val-Phe-DPro]) [ZMK 2-82] .
OUTPUT: 15
